- System: SJSA-1 cells
- EXPERIMENT: Cell lysis by peptidomimetic macrocycles (LDH release)
- Assay type: cell-based
- CONDITION PARAMETERS: 25 μM, SJSA-1, 1 h
Measured 25 μM % Lysed cells (1 h LDH), listed per entry.

MOLECULE: CCCC[C@H](NC(=O)[C@H](C)NC(=O)[C@H](C)NC(=O)[C@]1(C)CCCC=CCCCCCC[C@@](C)(NC(=O)[C@H](Cc2ccccc2)NC(=O)[C@@H](NC(=O)[C@H](CC(C)C)NC(C)=O)[C@@H](C)O)C(=O)N[C@@H](C)C(=O)N[C@@H](Cc2ccc(O)cc2)C(=O)N[C@@H](Cc2c[nH]c3ccccc23)C(=O)N[C@@H](C)C(=O)N[C@@H](C)C(=O)N[C@@H](CC(C)C)C(=O)N1)C(=O)N[C@@H](C(N)=O)C(C)C (single isomer, unassigned)
25 μM % Lysed cells (1 h LDH) (%): 1
//
MOLECULE: CCCC[C@H](NC(=O)[C@H](C)NC(=O)[C@H](C)NC(=O)[C@]1(C)CCC/C=C/CCCCCC[C@@](C)(NC(=O)[C@H](Cc2ccccc2)NC(=O)[C@@H](NC(=O)[C@H](CC(C)C)NC(C)=O)[C@@H](C)O)C(=O)N[C@@H](C)C(=O)N[C@@H](Cc2ccc(O)cc2)C(=O)N[C@@H](Cc2c[nH]c3ccccc23)C(=O)N[C@@H](C)C(=O)N[C@@H](CCC(N)=O)C(=O)N[C@@H](CC(C)C)C(=O)N1)C(=O)N[C@@H](C)C(N)=O
25 μM % Lysed cells (1 h LDH) (%): −0.5

----------
- System: SJSA-1 cells
- EXPERIMENT: Cell lysis by peptidomimetic macrocycles (LDH release)
- Assay type: cell-based
- CONDITION PARAMETERS: 50 μM, SJSA-1, 1 h
Here the recorded 50 μM % Lysed cells (1 h LDH) is given for each entry.

COMPOUND: CC(=O)N[C@@H](CC(C)C)C(=O)N[C@H](C(=O)N[C@@H](Cc1ccccc1)C(=O)N[C@]1(C)CCCCCCC=CCCC[C@@](C)(C(=O)N[C@@H](CO)C(=O)N[C@@H](C)C(=O)N[C@@H](C)C(=O)N[C@H](C)C(N)=O)NC(=O)[C@H](CC2CCC2)NC(=O)[C@H](CCC(N)=O)NC(=O)[C@H](C)NC(=O)[C@H](Cc2c[nH]c3ccccc23)NC(=O)[C@H](Cc2ccc(O)cc2)NC(=O)[C@H](CCC(=O)O)NC1=O)[C@@H](C)O (single isomer, unassigned) [compound 353]
50 μM % Lysed cells (1 h LDH) / %: 0
--
COMPOUND: CC(=O)N[C@@H](CC(C)C)C(=O)N[C@H](C(=O)N[C@@H](Cc1ccccc1)C(=O)N[C@]1(C)CCCCCCC=CCCC[C@@](C)(C(=O)N[C@@H](CO)C(=O)N[C@@H](C)C(=O)N[C@@H](C)C(N)=O)NC(=O)[C@H](C2CCCC2)NC(=O)[C@H](CCC(N)=O)NC(=O)[C@H](C)NC(=O)[C@H](Cc2c[nH]c3ccccc23)NC(=O)[C@H](Cc2ccc(O)cc2)NC(=O)[C@H](CCC(=O)O)NC1=O)[C@@H](C)O (single isomer, unassigned) [compound 150]
50 μM % Lysed cells (1 h LDH) / %: 2
